# GI50 values compiled below
# Tested on: SK-MEL-5
# run.description: NCI 60 antitumor screening (single dose / five doses)
# Type: cell-based
# stated.conditions: Homo sapiens; SK-MEL-5, five doses (0.01–100 μM); read-out: GI50

| structure.smiles | assay.target | GI50 [µM] |
| --- | --- | --- |
| Fc1cccc(Cl)c1/C=N/Nc1nc(N/N=C/c2c(F)cccc2Cl)nc(N2CCCCC2)n1 | SK-MEL-5 | 1.88 |
| Clc1cccc(/C=N/Nc2nc(N/N=C/c3cccc(Cl)c3)nc(N3CCOCC3)n2)c1 | SK-MEL-5 | 1.72 |
| Oc1ccccc1/C=N/Nc1nc(N/N=C/c2ccccc2O)nc(N2CCOCC2)n1 | SK-MEL-5 | 5.86 |
| CN(C)c1ccc(/C=N/Nc2nc(N/N=C/c3ccc(N(C)C)cc3)nc(N3CCCCC3)n2)cc1 | SK-MEL-5 | 1.73 |
| Brc1cccc(/C=N/Nc2nc(N/N=C/c3cccc(Br)c3)nc(N3CCOCC3)n2)c1 | SK-MEL-5 | 1.99 |

* * *

# Tested on: SF-268
# run.description: NCI 60 antitumor screening (single dose)
# Format: cell-based
# stated.conditions: Homo sapiens; SF-268 (CNS cancer), single dose 10 μM; read-out: Growth inhibition percentage (GI %)
# Procedure: Initially, the anticancer effects of target compounds have been assessed at a single (10 μM) dose. The obtained data have been reported as mean-graph of the percent growth (G%) of the treated cancer cells. Percentage growth inhibition (GI%) is calculated (100 − G%) and pronounced in Table 1. […] Target compounds in series (III) with manipulated linkers disclosed lower potency. […]
# inhibition at 10 µM values compiled below
parameter: inhibition at 10 µM (%)

| molecule | assay.target | numeric.value |
| --- | --- | --- |
| O=[N+]([O-])c1cc(/C=N/Nc2nc(N/N=C/c3ccc(Cl)c([N+](=O)[O-])c3)nc(N3CCCCC3)n2)ccc1Cl [compound 7i] | SF-268 | 35.1 |
| Oc1ccccc1/C=N/Nc1nc(N/N=C/c2ccccc2O)nc(N2CCCCC2)n1 [compound 7a] | SF-268 | 45.7 |
| O=[N+]([O-])c1cc(/C=N/Nc2nc(N/N=C/c3ccc(Cl)c([N+](=O)[O-])c3)nc(N3CCOCC3)n2)ccc1Cl [compound 6i] | SF-268 | 0.39 |
| Fc1cccc(/C=N/Nc2nc(N/N=C/c3cccc(F)c3)nc(N3CCCCC3)n2)c1 [compound 7e] | SF-268 | 0.36 |
| O=[N+]([O-])c1cccc(/C=N/Nc2nc(N/N=C/c3cccc([N+](=O)[O-])c3)nc(N3CCCCC3)n2)c1 [compound 7f] | SF-268 | 24.3 |
| Fc1cccc(Cl)c1/C=N/Nc1nc(N/N=C/c2c(F)cccc2Cl)nc(N2CCOCC2)n1 [compound 6l] | SF-268 | 11.2 |
| Brc1ccccc1/C=N/Nc1nc(N/N=C/c2ccccc2Br)nc(N2CCOCC2)n1 [compound 6b] | SF-268 | -2.5 |

* * *

# inhibition at 10 µM values compiled below
# Tested on: COLO 205
# run.description: NCI 60 antitumor screening (single dose / five doses)
# Assay type: cell-based
# stated.conditions: Homo sapiens; COLO 205 (colon cancer), single dose 10 μM; read-out: Growth inhibition percentage (GI %)
parameter: inhibition at 10 µM (%)

| compound | assay.target | numeric.value |
| --- | --- | --- |
| Clc1cccc(/C=N/Nc2nc(N/N=C/c3cccc(Cl)c3Cl)nc(N3CCOCC3)n2)c1Cl [compound 6h] | COLO 205 | 7.98 |
| Brc1cccc(/C=N/Nc2nc(N/N=C/c3cccc(Br)c3)nc(N3CCOCC3)n2)c1 [compound 6c] | COLO 205 | 76.2 |
| O=C(NNc1nc(NNC(=O)c2ccccc2)nc(N2CCOCC2)n1)c1ccccc1 [compound 8d] | COLO 205 | -12.9 |
| CN(C)c1ccc(/C=N/Nc2nc(N/N=C/c3ccc(N(C)C)cc3)nc(N3CCOCC3)n2)cc1 [compound 6g] | COLO 205 | -8.37 |
| Fc1cccc(/C=N/Nc2nc(N/N=C/c3cccc(F)c3)nc(N3CCOCC3)n2)c1 [compound 6e] | COLO 205 | 37.4 |
| Clc1cccc(/C=N/Nc2nc(N/N=C/c3cccc(Cl)c3)nc(N3CCCCC3)n2)c1 [compound 7d] | COLO 205 | -1.88 |
| Brc1ccccc1/C=N/Nc1nc(N/N=C/c2ccccc2Br)nc(N2CCOCC2)n1 [compound 6b] | COLO 205 | 13.9 |
| CN(C)c1ccc(/C=N/Nc2nc(N/N=C/c3ccc(N(C)C)cc3)nc(N3CCCCC3)n2)cc1 [compound 7g] | COLO 205 | 16.5 |
